- MEASURED_ON: human mPGES-1 (Homo sapiens, UniProt O14684)
- Sequence (O14684 whole entry): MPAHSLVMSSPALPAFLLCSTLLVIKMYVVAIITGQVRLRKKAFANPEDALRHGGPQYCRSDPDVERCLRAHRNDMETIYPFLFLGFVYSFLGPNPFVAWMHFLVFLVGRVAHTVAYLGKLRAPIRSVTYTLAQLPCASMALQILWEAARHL
pIC50: −log10 of the molar value.
METRIC: pIC50

- MOLECULE: "CC(C)C#Cc1ccc(C(=O)NS(=O)(=O)c2ccccc2S(N)(=O)=O)cc1OCC(C)C [Example 28]"
  MEASURED_ON: "human mPGES-1 (Homo sapiens, UniProt O14684)"
  TEST_VALUE: 7.70
- MOLECULE: "CC(C)C#Cc1ncc(C(=O)NS(=O)(=O)c2ccccc2S(N)(=O)=O)cc1OCCC(F)(F)F [Example 49]"
  MEASURED_ON: "human mPGES-1 (Homo sapiens, UniProt O14684)"
  TEST_VALUE: 7.89
- MOLECULE: "NS(=O)(=O)c1ccccc1S(=O)(=O)NC(=O)c1ccc(C#CC2CCCC2)c(OCCC(F)(F)F)c1 [Example 66]"
  MEASURED_ON: "human mPGES-1 (Homo sapiens, UniProt O14684)"
  TEST_VALUE: 8.03
- MOLECULE: "CC(C)(C)C#Cc1ccc(C(=O)NS(=O)(=O)c2ccccc2S(N)(=O)=O)cc1OCC1CC1 [Example 22]"
  MEASURED_ON: "human mPGES-1 (Homo sapiens, UniProt O14684)"
  TEST_VALUE: 7.89
- MOLECULE: "NS(=O)(=O)c1ccccc1S(=O)(=O)NC(=O)c1ccc(C#Cc2ccccc2)c(OCCOCC(F)(F)F)c1 [Example 63]"
  MEASURED_ON: "human mPGES-1 (Homo sapiens, UniProt O14684)"
  TEST_VALUE: 8.03
- MOLECULE: "NS(=O)(=O)c1ccccc1S(=O)(=O)NC(=O)c1ccc(OCc2ccccc2)c(OCC2CC2)c1 [Example 1]"
  MEASURED_ON: "human mPGES-1 (Homo sapiens, UniProt O14684)"
  TEST_VALUE: 6.55
- MOLECULE: "NS(=O)(=O)c1ccccc1S(=O)(=O)NC(=O)c1ccc(CN2CC(F)(F)C(F)(F)C2)cc1 [Example 24]"
  MEASURED_ON: "human mPGES-1 (Homo sapiens, UniProt O14684)"
  TEST_VALUE: 5.54
- MOLECULE: "COc1cc(C(=O)NS(=O)(=O)c2ccccc2S(N)(=O)=O)ccc1C#CC(C)C [Example 74]"
  MEASURED_ON: "human mPGES-1 (Homo sapiens, UniProt O14684)"
  TEST_VALUE: 6.72
- MOLECULE: "NS(=O)(=O)c1ccccc1S(=O)(=O)NC(=O)c1ccc(C#Cc2ccc(C(F)(F)F)cc2)c(CO)c1 [Example 39]"
  MEASURED_ON: "human mPGES-1 (Homo sapiens, UniProt O14684)"
  TEST_VALUE: 7.66
- MOLECULE: "COc1cc(C(=O)NS(=O)(=O)c2ccccc2S(N)(=O)=O)ccc1C#Cc1ccc(C(F)(F)F)cc1 [Example 38]"
  MEASURED_ON: "human mPGES-1 (Homo sapiens, UniProt O14684)"
  TEST_VALUE: 8.14
- MOLECULE: "COC(C)(C)CCOc1cc(C(=O)NS(=O)(=O)c2ccccc2S(N)(=O)=O)ccc1C#CC1CC1 [Example 27]"
  MEASURED_ON: "human mPGES-1 (Homo sapiens, UniProt O14684)"
  TEST_VALUE: 7.07
- MOLECULE: "CC(C)C#Cc1ccc(C(=O)NS(=O)(=O)c2ccccc2S(N)(=O)=O)cc1OCCC(C)(C)O [Example 25]"
  MEASURED_ON: "human mPGES-1 (Homo sapiens, UniProt O14684)"
  TEST_VALUE: 6.89
- MOLECULE: "CC(C)C#Cc1ccc(C(=O)NS(=O)(=O)c2ccccc2S(N)(=O)=O)cc1OCC(F)(F)F [Example 53]"
  MEASURED_ON: "human mPGES-1 (Homo sapiens, UniProt O14684)"
  TEST_VALUE: 7.60
- MOLECULE: "CCCC(C)C#Cc1ccc(C(=O)NS(=O)(=O)c2ccccc2S(N)(=O)=O)cc1 (stereo not shown) [Example 40]"
  MEASURED_ON: "human mPGES-1 (Homo sapiens, UniProt O14684)"
  TEST_VALUE: 7.85
- MOLECULE: "NS(=O)(=O)c1ccccc1S(=O)(=O)NC(=O)c1ccc(C#CCCCCCl)cc1 [Example 42]"
  MEASURED_ON: "human mPGES-1 (Homo sapiens, UniProt O14684)"
  TEST_VALUE: 7.43
- MOLECULE: "NS(=O)(=O)c1ccccc1S(=O)(=O)NC(=O)c1ccc(C#Cc2ccc(C(F)(F)F)cc2)nc1 [Example 43]"
  MEASURED_ON: "human mPGES-1 (Homo sapiens, UniProt O14684)"
  TEST_VALUE: 8.19
